- System: AEA cellular uptake (U937 cells)
- method: [3H]-AEA cellular uptake inhibition in U937 cells
- Assay type: cell-based
- condition-summary: Homo sapiens, U-937, U937 cells, final 100 nM AEA with 0.5 nM [3H]-AEA, 15 min at 37° C.; read-out: AEA uptake inhibition IC50
Rule: measured IC50 below 3000 nM gets condition met; anything equal to or greater than 3000 nM gets condition not met.

{"compound": "O=C1/C(=C/c2ccc3cc[nH]c3c2)S/C(=N\\c2ccccc2)N1c1ccccc1", "category-label": "condition met"}

Problem: For the compound CSc1ccc(/C=C2\S/C(=N\c3ccccc3)N(c3ccccc3)C2=O)cc1 , is IC50 under 3000 nM?
condition not met

Problem: For the compound O=C1/C(=C/c2ccc3c(c2)OCO3)S/C(=N\c2ccccc2)N1c1ccccc1 , is IC50 under 3000 nM?
condition not met

Problem: For the compound C/N=C1\S/C(=C\c2ccc3[nH]ccc3c2)C(=O)N1c1ccccc1 , is IC50 under 3000 nM?
condition not met

Problem: For the compound O=C1/C(=C/c2ccccc2)S/C(=N\Cc2ccccc2)N1c1ccccc1 [drawing 130] , is IC50 under 3000 nM?
condition met
